target: Cholecystokinin receptor type A (Rattus norvegicus)
Sequence (P30551 whole entry): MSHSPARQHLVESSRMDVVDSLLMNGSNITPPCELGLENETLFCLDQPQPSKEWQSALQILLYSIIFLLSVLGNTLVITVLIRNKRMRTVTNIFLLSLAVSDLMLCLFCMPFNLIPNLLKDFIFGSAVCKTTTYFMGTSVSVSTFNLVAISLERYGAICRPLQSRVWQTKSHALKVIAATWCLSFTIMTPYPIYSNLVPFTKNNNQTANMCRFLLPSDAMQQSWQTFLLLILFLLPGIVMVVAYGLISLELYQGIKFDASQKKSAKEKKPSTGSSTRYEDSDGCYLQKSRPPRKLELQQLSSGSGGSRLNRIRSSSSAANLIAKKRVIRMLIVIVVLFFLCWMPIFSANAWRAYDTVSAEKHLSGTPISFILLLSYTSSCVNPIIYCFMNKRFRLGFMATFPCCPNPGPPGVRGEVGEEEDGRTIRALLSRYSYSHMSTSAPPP
testReadout: IC50 (nM)

1. Cc1cccc(NC(=O)N[C@H]2N=C(N3CC4CCC(CC4)C3)c3ccccc3N(C)C2=O)c1: 6.5
2. Cc1cccc(NC(=O)NC2N=C(N3CCCCC3)c3ccccc3N(C)C2=O)c1 (stereo not drawn): 17
3. Cc1cccc(NC(=O)NC2N=C(N3CC4CCC(CC4)C3)c3ccccc3N(C)C2=O)c1 (stereo not drawn): 19.9

###

assay: Binding activity against Cholecystokinin type B receptor from guinea pig cortex using [125]BH CCK-8s as radioligand.
pIC50: −log10 of the molar value.
testReadout: pIC50

1) Cc1cccc(NC(=O)N[C@@H]2N=C(C3CCCCC3)c3ccccc3N(C)C2=O)c1: 9.55
